This collection of values is drawn from patent US20220162310A1.

# SYSTEM TESTED: T1, human TIGIT-His antigen (human, UniProt Q495A1 22-141)
# T1 construct: not shown: His tag
# T1 chain: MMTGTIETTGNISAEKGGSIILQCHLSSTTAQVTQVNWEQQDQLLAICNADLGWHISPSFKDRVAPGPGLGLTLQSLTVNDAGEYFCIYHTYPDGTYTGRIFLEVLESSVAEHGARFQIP
# ASSAY SUMMARY: Octet (BLI), human TIGIT-HIS on penta-His sensor, antibody in solution
MEASUREMENT TYPE: koff (s⁻¹)
The answer is to be given in s⁻¹; state only the numeric part.

Solved entries:
[[record]]
binder = "1E8 (IgG-type anti-TIGIT antibody) (antibody, V domains shown, section 4.2 is headed 'Conversion to IgG4-Type Anti-TIGIT Antibodies') VH: QVQLVQSGTEVKKPGASVKVSCKASGYTFSSYAITWVRQAPGQGLEWMGWISAYNGNTNYAQKLQGRVTMTTDTSTSTAYMELRSLRSDDTAVYYCARVDFWSGYNYFDYWGQGTLVTVSS VL: DIQMTQSPSSLSASVGDRVTITCRASQGISNYLAWYQQKPGKVPKVLIYAASTLQSGVPSRFSGSGSGTDFTLTISSLQPEDVATYYCQKSNSAPLTFGGGTKVEIKR"
measurement_type = "koff"
quantitative_result = 0.000528

[[record]]
binder = "WIN_1B6 (IgG-type anti-TIGIT antibody) (antibody, V domains shown, section 4.2 is headed 'Conversion to IgG4-Type Anti-TIGIT Antibodies') VH: QVQLVQSGAEVKKPGASVKVSCKASGYTFTSYGISWVRQAPGQGLEWMGWISAYNGNTNYAQKLQGRVTMTTDTSTSTAYMELRSLRSDDTAVYYCARAGWEQQLGFDYWGQGTLVTVSS VL: AIQLTQSPSSLSASVGDRVTISCRASQTIRSYLNWYQQKPGKAPKLLIYAASSLQSGVPLRFSGSGSGTDFTLTISSLQPEDFATYYCQQSYSTLPLTFGGGTKVEIKR"
measurement_type = "koff"
quantitative_result = 0.000206

[[record]]
binder = "1F10 (IgG-type anti-TIGIT antibody) (antibody, V domains shown, section 4.2 is headed 'Conversion to IgG4-Type Anti-TIGIT Antibodies') VH: EVQLVESGGGLVKPGGSLRISCAASGFTFSNYNMIWVRQAPGKGLEWVSSISSSASYIYYADSVKGRFTISRDNAKNSLYLQMNSLRAEDTAVYYCARDEGSRDSWNNGPYYYSGMDVWGQGTTVTVSS VL: AIQMTQSPSSLSASVGDRVTITCRASQSISRYLNWYQHKPGKAPKLLIYGASSLQSGVPSRFRGSGSGTDFTLTISSLQPEDFATYYCQQSYTTPGAFTFGGGTKVEIKR"
measurement_type = "koff"
quantitative_result = 0.000232


# lookup: koff of WIN_1D2 (IgG-type anti-TIGIT antibody) (antibody, V domains shown, section 4.2 is headed 'Conversion to IgG4-Type Anti-TIGIT Antibodies') VH: QVQLVQSGAEVKKPGASVKVSCKASGYTFTSYGISWVRQAPGQGLEWMGWISAYNGNTNYAQKLQGRVTMTTDTSTSTAYMELRSLRSDDTAVYYCARAGWEQQLGFDYWGQGTLVTVSS VL: AIQLTQSPSSLSASVGDRVTITCRASQSISSYLNWYQQKPGKAPKLLIYAASSLQSGVPSRFSGSGSGTDFTLTISSLQPEDFATYYCQQSYSTLAITFGQGTRLEIKR
0.000278
